Where these numbers come from: ChEMBL document CHEMBL6092212

Recorded pIC50 values for a group of compounds are listed next.
molecular target: Cholinesterase (Equus caballus, UniProt P81908)
Sequence (P81908 whole entry): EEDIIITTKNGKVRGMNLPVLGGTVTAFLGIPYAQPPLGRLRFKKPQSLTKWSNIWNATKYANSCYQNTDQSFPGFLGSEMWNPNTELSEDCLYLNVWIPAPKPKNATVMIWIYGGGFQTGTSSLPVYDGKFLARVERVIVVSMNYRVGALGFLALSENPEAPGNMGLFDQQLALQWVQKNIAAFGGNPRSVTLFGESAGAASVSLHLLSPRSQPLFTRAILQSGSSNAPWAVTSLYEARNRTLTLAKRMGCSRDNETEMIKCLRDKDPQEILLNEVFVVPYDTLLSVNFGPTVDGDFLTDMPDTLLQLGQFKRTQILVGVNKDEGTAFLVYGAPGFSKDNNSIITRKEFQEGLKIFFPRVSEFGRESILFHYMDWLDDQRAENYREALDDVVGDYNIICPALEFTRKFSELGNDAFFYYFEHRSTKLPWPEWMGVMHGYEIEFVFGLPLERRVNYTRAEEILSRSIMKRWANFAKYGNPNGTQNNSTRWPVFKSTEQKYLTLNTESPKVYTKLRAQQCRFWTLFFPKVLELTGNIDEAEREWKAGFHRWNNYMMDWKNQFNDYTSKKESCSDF
Remember, pIC50 is on a log scale: it is -log10 of the molar concentration.

# count of solved cases: 3
>>> print(df.to_string())
                            compound_smiles  quantity  reported
0    N/C(=N\O)c1cccc(NC(=O)Nc2cccc(Br)c2)c1     pIC50      5.06
1  N/C(=N\O)c1cccc(NC(=O)Nc2ccc3[nH]ccc3c2)c1     pIC50      4.80
2      COc1ccccc1NC(=O)Nc1cccc(/C(N)=N/O)c1     pIC50      4.82

The recorded pIC50 for N/C(=N\O)c1cccc(NC(=O)Nc2ccccc2)c1 is 4.76

So for N/C(=N\O)c1cccc(NC(=O)Nc2cccc(F)c2)c1 , the logged pIC50 turned out to be 5.17

Item: N/C(=N\O)c1ccc(NC(=O)Nc2cccc(F)c2)cc1 | pIC50: 5.09

response.value for NC(=NO)c1ccc(NC(=O)Nc2cccc(Br)c2)cc1 (field: pIC50) = 5.12

Looking up Cc1cccc(NC(=O)Nc2cccc(/C(N)=N/O)c2)c1 , I found its pIC50 recorded as 4.98

* * *

assay: Permeability of compound in PBS at pH 7.4 at 500 uM by PAMPA; assay type: ADME; details: read-out: permeability
Quantity: Papp at 500 µM (×10⁻⁶ cm/s)
Write it as a number; the unit ×10⁻⁶ cm/s goes unstated.

Looking up N/C(=N\O)c1cccc(NC(=O)Nc2cccc(F)c2)c1 , I see its Papp at 500 µM listed as 10.7

Measured Papp at 500 µM of COc1ccc2[nH]cc(CCNC(=O)Nc3cccc(/C(N)=N/O)c3)c2c1 : 12.3

* * *

target: Cholinesterase (Homo sapiens, UniProt P06276); assay: Inhibition of human BChE using BTCI as substrate preincubated for 30 mins followed by substrate addition measured after 30 mins by Ellman's method
Sequence (P06276 whole entry): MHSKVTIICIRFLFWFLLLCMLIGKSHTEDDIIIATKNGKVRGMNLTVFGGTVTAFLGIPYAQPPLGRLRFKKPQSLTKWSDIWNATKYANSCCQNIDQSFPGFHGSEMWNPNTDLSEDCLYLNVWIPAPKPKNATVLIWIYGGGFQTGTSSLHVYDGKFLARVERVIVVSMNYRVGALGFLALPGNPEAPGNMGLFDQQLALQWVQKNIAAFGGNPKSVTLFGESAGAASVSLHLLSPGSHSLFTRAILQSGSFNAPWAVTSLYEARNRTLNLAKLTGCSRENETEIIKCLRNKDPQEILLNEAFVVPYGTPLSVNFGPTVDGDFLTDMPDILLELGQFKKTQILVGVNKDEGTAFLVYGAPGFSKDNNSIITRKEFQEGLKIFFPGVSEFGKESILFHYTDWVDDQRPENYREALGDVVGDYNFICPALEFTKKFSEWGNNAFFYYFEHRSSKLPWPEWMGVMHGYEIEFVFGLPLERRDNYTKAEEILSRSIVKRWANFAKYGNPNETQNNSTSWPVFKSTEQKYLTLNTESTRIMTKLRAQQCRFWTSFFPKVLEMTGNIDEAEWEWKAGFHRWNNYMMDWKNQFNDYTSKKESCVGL
Listing of entries alongside the reported IC50.
Number in µM, nothing else.

In [3]: df
Out[3]:
                         compound_smiles  measurement_units  reported
0  N/C(=N\O)c1cccc(NC(=O)Nc2cccc(F)c2)c1                 µM      5.21

# next compound below
Item: COc1ccc2[nH]cc(CCNC(=O)Nc3cccc(/C(N)=N/O)c3)c2c1 | IC50: 1.01

* * *

biological target: Acetylcholinesterase (Homo sapiens, UniProt P22303); assay: Inhibition of human AChE using ATCI as substrate preincubated for 30 mins followed by substrate addition measured after 30 mins by Ellman's method
Sequence (P22303 whole entry): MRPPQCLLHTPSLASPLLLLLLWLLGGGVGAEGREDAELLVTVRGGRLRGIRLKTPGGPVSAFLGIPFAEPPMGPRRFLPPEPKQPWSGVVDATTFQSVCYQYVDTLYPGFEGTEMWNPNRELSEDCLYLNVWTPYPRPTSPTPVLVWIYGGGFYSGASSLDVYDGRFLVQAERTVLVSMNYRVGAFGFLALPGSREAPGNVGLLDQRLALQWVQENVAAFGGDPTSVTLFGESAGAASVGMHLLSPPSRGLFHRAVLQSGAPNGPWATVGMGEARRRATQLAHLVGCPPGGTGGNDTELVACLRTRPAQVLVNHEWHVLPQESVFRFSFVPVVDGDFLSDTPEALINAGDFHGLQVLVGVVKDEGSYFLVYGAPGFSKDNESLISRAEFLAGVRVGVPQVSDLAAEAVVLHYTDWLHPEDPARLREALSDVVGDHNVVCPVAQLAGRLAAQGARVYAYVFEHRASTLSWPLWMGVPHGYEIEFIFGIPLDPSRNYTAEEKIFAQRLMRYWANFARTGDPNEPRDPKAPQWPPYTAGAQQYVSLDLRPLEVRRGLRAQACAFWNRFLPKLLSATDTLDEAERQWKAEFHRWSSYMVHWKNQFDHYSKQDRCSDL
Quantity: IC50
Output should be the measured figure followed by the unit it is expressed in.

The reported IC50 of the compound N/C(=N\O)c1ccc(NC(=O)Nc2ccc3ncccc3c2)cc1 was 6.94 µM

In plain terms, COc1ccc(NC(=O)Nc2cccc(/C(N)=N/O)c2)cc1 has a documented IC50 of 16.3 µM

// IC50 lookup, compound = NC(=NO)c1cccc(NC(=O)Nc2cccc(Cl)c2)c1 , result: 17.4 µM

* * *

Listed here: molecules with reported pIC50 for Cholinesterase (Equus caballus).
pIC50 is a log-scale quantity: -log10 of the concentration expressed in molar.

Worked cases, pIC50 given:
                            compound_smiles                    target_system  reported
0    COc1cccc(NC(=O)Nc2cccc(/C(N)=N/O)c2)c1  Cholinesterase (Equus caballus)      4.89
1  COc1ccc2[nH]cc(CCNC(=O)Nc3cccc(/C(N)=N/O)c3)c2c1  Cholinesterase (Equus caballus)      5.92

Now consider a different molecule.
Entry N/C(=N\O)c1cccc(NC(=O)NCCc2c[nH]c3ccccc23)c1 , tested on Cholinesterase (Equus caballus), has a reported pIC50 of 5.41
